Source of measurements: ChEMBL document CHEMBL1125337

- System: Staphylococcus aureus
- experiment: Minimum inhibitory concentration against Staphylococcus aureus L 165
- Assay type: functional
recorded metric: MIC
# output: numeric value plus its unit

Q) Find MIC (Staphylococcus aureus) for the entry "CC(=O)N[C@@H]1[C@H](O[C@@H]2c3ccc(c(Cl)c3)Oc3cc4cc(c3O[C@@H]3O[C@@H](CO)[C@@H](O)[C@H](O)[C@@H]3NC(=O)CCCCCCC(C)C)Oc3ccc(cc3Cl)C[C@H]3NC(=O)[C@H](N)c5ccc(O)c(c5)Oc5cc(O)cc(c5)[C@H](NC3=O)C(=O)N[C@H]4C(=O)N[C@H]3C(=O)N[C@@H]2C(=O)N[C@H](C(=O)N2CCCCN(CCCN(C)C)CCCC2)c2cc(O)cc(O[C@H]4O[C@H](CO)[C@@H](O)[C@@H](O)[C@@H]4O)c2-c2cc3ccc2O)O[C@@H](CO)[C@@H](O)[C@@H]1O"
A) 0.125 µg/mL

###

- System: Streptococcus pneumoniae
- experiment: Minimum inhibitory concentration against Streptococcus pneumoniae L 44
- Assay type: functional
Listed here: items and their measured MIC.
Report as a plain number; the unit µg/mL is understood.

Completed entries (count: 6):
CC(=O)N[C@@H]1[C@H](O[C@@H]2c3ccc(c(Cl)c3)Oc3cc4cc(c3O[C@@H]3O[C@@H](CO)[C@@H](O)[C@H](O)[C@@H]3NC(=O)CCCCCCC(C)C)Oc3ccc(cc3Cl)C[C@H]3NC(=O)[C@H](N)c5ccc(O)c(c5)Oc5cc(O)cc(c5)[C@H](NC3=O)C(=O)N[C@H]4C(=O)N[C@H]3C(=O)N[C@@H]2C(=O)N[C@H](C(=O)NCCNCCCNCCN)c2cc(O)cc(O[C@H]4O[C@H](CO)[C@@H](O)[C@@H](O)[C@@H]4O)c2-c2cc3ccc2O)O[C@@H](CO)[C@@H](O)[C@@H]1O : 0.125
CC(=O)N[C@@H]1[C@H](O[C@@H]2c3ccc(c(Cl)c3)Oc3cc4cc(c3O[C@@H]3O[C@@H](CO)[C@@H](O)[C@H](O)[C@@H]3NC(=O)CCCCCCC(C)C)Oc3ccc(cc3Cl)C[C@H]3NC(=O)[C@H](N)c5ccc(O)c(c5)Oc5cc(O)cc(c5)[C@H](NC3=O)C(=O)N[C@H]4C(=O)N[C@H]3C(=O)N[C@@H]2C(=O)N[C@H](C(=O)NCCNCCN)c2cc(O)cc(O[C@H]4O[C@H](CO)[C@@H](O)[C@@H](O)[C@@H]4O)c2-c2cc3ccc2O)O[C@@H](CO)[C@@H](O)[C@@H]1O : 0.125
CC(=O)N[C@@H]1[C@H](O[C@@H]2c3ccc(c(Cl)c3)Oc3cc4cc(c3O[C@@H]3O[C@@H](CO)[C@@H](O)[C@H](O)[C@@H]3NC(=O)CCCCCCC(C)C)Oc3ccc(cc3Cl)C[C@H]3NC(=O)[C@H](N)c5ccc(O)c(c5)Oc5cc(O)cc(c5)[C@H](NC3=O)C(=O)N[C@H]4C(=O)N[C@H]3C(=O)N[C@@H]2C(=O)N[C@H](C(=O)NCCCNCCCN)c2cc(O)cc(O[C@H]4O[C@H](CO)[C@@H](O)[C@@H](O)[C@@H]4O)c2-c2cc3ccc2O)O[C@@H](CO)[C@@H](O)[C@@H]1O : 0.125
NCCCNCCCNCCCNC(=O)[C@H]1NC(=O)[C@H]2NC(=O)[C@H](NC(=O)[C@@H]3NC(=O)[C@H]4NC(=O)[C@@H](Cc5ccc(c(Cl)c5)Oc5cc3cc(c5O)Oc3ccc(cc3Cl)[C@H]2O)NC(=O)[C@H](N)c2ccc(O)c(c2)Oc2cc(O)cc4c2)c2ccc(O)c(c2)-c2c(O)cc(O)cc21 : 0.125
CC(=O)N[C@@H]1[C@H](O[C@@H]2c3ccc(c(Cl)c3)Oc3cc4cc(c3O[C@@H]3O[C@@H](CO)[C@@H](O)[C@H](O)[C@@H]3NC(=O)CCCCCCC(C)C)Oc3ccc(cc3Cl)C[C@H]3NC(=O)[C@H](N)c5ccc(O)c(c5)Oc5cc(O)cc(c5)[C@H](NC3=O)C(=O)N[C@H]4C(=O)N[C@H]3C(=O)N[C@@H]2C(=O)N[C@H](C(=O)NCCCNCCNCCCN)c2cc(O)cc(O[C@H]4O[C@H](CO)[C@@H](O)[C@@H](O)[C@@H]4O)c2-c2cc3ccc2O)O[C@@H](CO)[C@@H](O)[C@@H]1O : 0.125
N[C@H]1C(=O)N[C@@H]2Cc3ccc(c(Cl)c3)Oc3cc4cc(c3O)Oc3ccc(cc3Cl)[C@@H](O)[C@@H]3NC(=O)[C@H](NC(=O)[C@@H]4NC(=O)[C@@H](NC2=O)c2cc(O)cc(c2)Oc2cc1ccc2O)c1ccc(O)c(c1)-c1c(O)cc(O)cc1[C@@H](C(=O)N1CCNCCNCCNCCNCCNCC1)NC3=O : 0.25

Q) Looking for the measured MIC of "NCCNCCNC(=O)[C@H]1NC(=O)[C@H]2NC(=O)[C@H](NC(=O)[C@@H]3NC(=O)[C@H]4NC(=O)[C@@H](Cc5ccc(c(Cl)c5)Oc5cc3cc(c5O)Oc3ccc(cc3Cl)[C@H]2O)NC(=O)[C@H](N)c2ccc(O)c(c2)Oc2cc(O)cc4c2)c2ccc(O)c(c2)-c2c(O)cc(O)cc21" , can you help?
A) 0.125

Q) Suppose we examine the compound "NCCN(CCN)CCNC(=O)[C@H]1NC(=O)[C@H]2NC(=O)[C@H](NC(=O)[C@@H]3NC(=O)[C@H]4NC(=O)[C@@H](Cc5ccc(c(Cl)c5)Oc5cc3cc(c5O)Oc3ccc(cc3Cl)[C@H]2O)NC(=O)[C@H](N)c2ccc(O)c(c2)Oc2cc(O)cc4c2)c2ccc(O)c(c2)-c2c(O)cc(O)cc21" ; what MIC value has been reported?
A) 0.125

Q) Please report the recorded MIC for "NCCCNCCCNC(=O)[C@H]1NC(=O)[C@H]2NC(=O)[C@H](NC(=O)[C@@H]3NC(=O)[C@H]4NC(=O)[C@@H](Cc5ccc(c(Cl)c5)Oc5cc3cc(c5O)Oc3ccc(cc3Cl)[C@H]2O)NC(=O)[C@H](N)c2ccc(O)c(c2)Oc2cc(O)cc4c2)c2ccc(O)c(c2)-c2c(O)cc(O)cc21" .
A) 0.125

Q) Request the reported MIC associated with "CC(=O)N[C@@H]1[C@H](O[C@@H]2c3ccc(c(Cl)c3)Oc3cc4cc(c3O[C@@H]3O[C@@H](CO)[C@@H](O)[C@H](O)[C@@H]3NC(=O)CCCCCCC(C)C)Oc3ccc(cc3Cl)C[C@H]3NC(=O)[C@H](N)c5ccc(O)c(c5)Oc5cc(O)cc(c5)[C@H](NC3=O)C(=O)N[C@H]4C(=O)N[C@H]3C(=O)N[C@@H]2C(=O)N[C@H](C(=O)NCCCN(CCCN)CCCN)c2cc(O)cc(O[C@H]4O[C@H](CO)[C@@H](O)[C@@H](O)[C@@H]4O)c2-c2cc3ccc2O)O[C@@H](CO)[C@@H](O)[C@@H]1O"
A) 0.063

###

- System: Staphylococcus aureus
- experiment: Minimum inhibitory concentration against Staphylococcus aureus L 165
- Type: functional
We begin with a simple list: items and their reported MIC.
Report field: quantity (unit follows the number).

Observe how each entry below is paired with its result.
N[C@H]1C(=O)N[C@@H]2Cc3ccc(c(Cl)c3)Oc3cc4cc(c3O)Oc3ccc(cc3Cl)[C@@H](O)[C@@H]3NC(=O)[C@H](NC(=O)[C@@H]4NC(=O)[C@@H](NC2=O)c2cc(O)cc(c2)Oc2cc1ccc2O)c1ccc(O)c(c1)-c1c(O)cc(O)cc1[C@@H](C(=O)N1CCNCCNCCNCCNCCNCC1)NC3=O : 0.125 µg/mL
CCN(CC)CCN(CCCN)CCCNC(=O)[C@H]1NC(=O)[C@H]2NC(=O)[C@H](NC(=O)[C@@H]3NC(=O)[C@H]4NC(=O)[C@@H](Cc5ccc(c(Cl)c5)Oc5cc3cc(c5O)Oc3ccc(cc3Cl)[C@H]2O)NC(=O)[C@H](N)c2ccc(O)c(c2)Oc2cc(O)cc4c2)c2ccc(O)c(c2)-c2c(O)cc(O)cc21 : 0.125 µg/mL

Kindly review the next compound as well.
Q) Quick check: MIC of "CC(=O)N[C@@H]1[C@H](O[C@@H]2c3ccc(c(Cl)c3)Oc3cc4cc(c3O[C@@H]3O[C@@H](CO)[C@@H](O)[C@H](O)[C@@H]3NC(=O)CCCCCCC(C)C)Oc3ccc(cc3Cl)C[C@H]3NC(=O)[C@H](N)c5ccc(O)c(c5)Oc5cc(O)cc(c5)[C@H](NC3=O)C(=O)N[C@H]4C(=O)N[C@H]3C(=O)N[C@@H]2C(=O)N[C@H](C(=O)NCCN(CCN)CCN)c2cc(O)cc(O[C@H]4O[C@H](CO)[C@@H](O)[C@@H](O)[C@@H]4O)c2-c2cc3ccc2O)O[C@@H](CO)[C@@H](O)[C@@H]1O" ?
A) 0.125 µg/mL
